target: human β3 adrenergic receptor (Homo sapiens, UniProt P13945); construct: expressed in transfected cells; host or cells: DXB-11 Chinese hamster ovary (CHO) cell line, stably transfected (phd expression vector); assay: whole cell receptor coupled c-AMP assay, human β3 receptor in CHO cells (EC50, Emax relative to isoproterenol); type: cell-based; settings: Emax ± standard error of the mean; average of at least 3 runs except where n = 1; compound tested in the isolated form listed
Sequence (P13945 whole entry): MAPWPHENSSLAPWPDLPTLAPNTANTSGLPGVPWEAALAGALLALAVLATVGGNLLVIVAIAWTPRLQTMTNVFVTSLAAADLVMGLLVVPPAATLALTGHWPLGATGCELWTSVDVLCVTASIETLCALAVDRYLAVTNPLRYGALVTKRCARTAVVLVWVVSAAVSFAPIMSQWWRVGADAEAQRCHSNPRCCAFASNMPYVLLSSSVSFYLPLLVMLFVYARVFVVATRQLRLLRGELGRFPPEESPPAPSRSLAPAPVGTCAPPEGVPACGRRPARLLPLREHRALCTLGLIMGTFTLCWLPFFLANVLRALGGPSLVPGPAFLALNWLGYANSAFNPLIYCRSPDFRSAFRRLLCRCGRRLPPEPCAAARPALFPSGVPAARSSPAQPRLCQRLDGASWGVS
Consider the following compounds; for each one, report its Emax (%) ± SEM.
One number for each entry, in %.

Example entries and their recorded answers appear below.
{"columns": ["structure_smiles", "subject_of_test", "numeric_value"],
 "data": [
  ["CC(C)(Cc1ccc(Oc2ccc(C(N)=O)cn2)cc1)NC[C@H](O)COc1ccccc1-c1nncs1.O=C(O)C(=O)O", "human β3 adrenergic receptor (Homo sapiens, UniProt P13945)", 43.3],
  ["CC(C)(Cc1ccc(Oc2ncccc2C(N)=O)cc1)NC[C@H](O)COc1cccc(-c2ccnc(N)n2)c1", "human β3 adrenergic receptor (Homo sapiens, UniProt P13945)", 24.9],
  ["CC(C)(Cc1ccccc1-c1ccc(C#N)cc1)NC[C@H](O)COc1ccccc1-c1ccno1.Cl", "human β3 adrenergic receptor (Homo sapiens, UniProt P13945)", 22.7],
  ["CC(C)(Cc1ccc(Oc2ccc(S(C)(=O)=O)cc2Cl)cc1)NC[C@H](O)COc1ccccc1-c1cccs1.O=C(O)C(F)(F)F", "human β3 adrenergic receptor (Homo sapiens, UniProt P13945)", 66.2],
  ["CC(C)(Cc1ccc(Oc2cnccn2)cc1)NC[C@H](O)COc1ccccc1-c1nccs1.O=C(O)C(F)(F)F", "human β3 adrenergic receptor (Homo sapiens, UniProt P13945)", 61.1]
]}

Hello, I would appreciate it if you could give Emax (%) ± SEM for each entry below.
1. CC(C)(Cc1ccc(Oc2cccnc2C#N)cc1)NC[C@H](O)COc1ccccc1-c1cscn1.Cl
2. CC(C)(Cc1ccc(Oc2ccc(C(N)=O)cc2Cl)cc1)NC[C@H](O)COc1ccccc1-c1nccs1.O=C(O)C(F)(F)F
3. CC(C)(Cc1ccc(Oc2cccnc2C(N)=O)cc1)NC[C@H](O)COc1ccccc1-c1ccns1.O=C(O)C(F)(F)F
4. CC(C)(Cc1ccc(Oc2ccc(C(N)=O)cn2)cc1)NC[C@H](O)COc1ccccc1-c1ccno1
5. CC(C)(Cc1ccc(Oc2ncccc2C(N)=O)cc1)NC[C@H](O)COc1ccccc1-c1cscn1.Cl

47.0
49.7
83.0
49.1
65.7

# Emax (%) ± SEM lookup, item CC(C)(Cc1ccc(Oc2ccc(C(N)=O)cc2)cc1)NC[C@H](O)COc1ccccc1-c1ccns1.O=C(O)C(F)(F)F
62.2

The reported numbers originate from patent US6730792B2.
